B1: RHOBTB3 (parent)
chain: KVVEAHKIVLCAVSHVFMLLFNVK

Variants of: B1
test.description: protein stability index of a GFP-peptide fusion (GPS, HEK-293T) (PSI 1-6); higher = more stable;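 also: lentivirally expressed fusions sorted by FACS into six bins by GFP to DsRed ratio, PSI derived from sequencing read proportions per bin multiplied by bin number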
conditions: c terminus: a fixed tail appended
recorded.metric: protein stability index
Respond with the number and no other words.

Quick check: protein stability index of M18A ?
3.04

Request: L20F
2.97

What about this variant? A5S
3.05

Value source: the supplement of paper PMC10567573
